# system: CCR2 (Homo sapiens, UniProt P41597)
# Sequence (P41597 1-360 isoform P41597-2): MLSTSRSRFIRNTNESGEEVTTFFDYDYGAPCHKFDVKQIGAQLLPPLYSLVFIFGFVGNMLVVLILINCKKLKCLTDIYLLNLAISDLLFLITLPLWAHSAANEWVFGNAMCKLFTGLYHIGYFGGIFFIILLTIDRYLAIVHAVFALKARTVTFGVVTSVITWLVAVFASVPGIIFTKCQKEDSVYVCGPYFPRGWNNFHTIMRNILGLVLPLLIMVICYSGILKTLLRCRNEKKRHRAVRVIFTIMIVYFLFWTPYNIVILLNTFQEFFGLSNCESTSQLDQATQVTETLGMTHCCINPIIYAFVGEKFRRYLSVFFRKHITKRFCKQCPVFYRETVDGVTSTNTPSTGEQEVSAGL
pIC50: −log10 of the molar value.
measurement-name: pIC50

(A) O=C(/C=C/c1cc(F)c(F)c(F)c1)N1CCC([C@H](CO)N2CCC(c3c[nH]c4ccccc34)CC2)CC1 [Cpd 188]
(B) COc1ccc2[nH]cc(C3CCN(C(CO)C4CCN(C(=O)/C=C/c5cc(F)c(F)c(F)c5)CC4)CC3)c2c1 (centres unmarked) [Cpd 166]
Input line: // pick larger pIC50 from pair: A vs B Answer with the label corresponding to your selection.
Output line: B
(B: 8.22, A: 7.53)

(A) O=C(O)C(C1CCN(C(=S)Nc2cc(F)cc(F)c2)CC1)N1CCC(c2c[nH]c3ccccc23)CC1 (centres unmarked) [Cpd 55]
(B) O=C(O)C(C1CCN(C(=O)Nc2cc(F)cc(C(F)(F)F)c2)CC1)N1CCC(c2c[nH]c3ccccc23)CC1 (centres unmarked) [Cpd 65]
Input line: // compare measured pIC50, left A , right B , return larger Indicate which entry you chose by stating its label.
Output line: A

----------
# system: CCR2 (Homo sapiens)
pIC50: −log10 of the molar value.
measurement-name: pIC50

| compound | pIC50 |
| --- | --- |
| Cc1ccc(NC(=O)N2CCC(C(C(=O)O)N3CCC(c4c[nH]c5ccccc45)CC3)CC2)cc1F (stereo not drawn) [Cpd 105] | 7.05 |
| COc1ccc(C2CCN([C@H](CO)C3CCN(C(=O)/C=C/c4cc(F)cc(F)c4)CC3)CC2)cc1 [Cpd 180] | 7.15 |
| O=C(/C=C/c1cc(F)c(F)c(F)c1)N1CCC(C(CO)N2CCC(c3cc[nH]n3)CC2)CC1 (stereo not drawn) [Cpd 156] | 7.10 |
